# System name: HMGB1 (high mobility group box 1) (Homo sapiens)
# Construct: recombinant full length, pET-24d, E. coli BL21, Ni-NTA purified; a recombinant human HMGB1 was also bought from Abcam
# Sequence (P09429 whole entry): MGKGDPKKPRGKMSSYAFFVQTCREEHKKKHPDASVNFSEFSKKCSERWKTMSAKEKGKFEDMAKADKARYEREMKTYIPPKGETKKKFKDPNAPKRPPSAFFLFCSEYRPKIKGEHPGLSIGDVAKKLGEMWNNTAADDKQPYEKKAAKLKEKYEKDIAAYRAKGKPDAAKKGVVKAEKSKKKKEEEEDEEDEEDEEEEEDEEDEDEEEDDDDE
# Measurement protocol: surface plasmon resonance, CM5 chip, steady-state […]
Reported endpoint: Kd (µM)
Give the quantity in µM, number only.

Write down the reported Kd (system: HMGB1 (high mobility group box 1) (Homo sapiens)) of "CC1=C(O)C(=O)C=C2C1=CC=C1[C@@]2(C)CC[C@@]2(C)[C@@H]3C[C@](C)(C(=O)O)CC[C@]3(C)CC[C@]12C"
4.44

###

# System name: PKM2 (pyruvate kinase M2) (Homo sapiens, UniProt P14618)
# Construct: recombinant, pET28a, E. coli BL21, Ni-NTA purified; full length implied
# Sequence (P14618 2-531): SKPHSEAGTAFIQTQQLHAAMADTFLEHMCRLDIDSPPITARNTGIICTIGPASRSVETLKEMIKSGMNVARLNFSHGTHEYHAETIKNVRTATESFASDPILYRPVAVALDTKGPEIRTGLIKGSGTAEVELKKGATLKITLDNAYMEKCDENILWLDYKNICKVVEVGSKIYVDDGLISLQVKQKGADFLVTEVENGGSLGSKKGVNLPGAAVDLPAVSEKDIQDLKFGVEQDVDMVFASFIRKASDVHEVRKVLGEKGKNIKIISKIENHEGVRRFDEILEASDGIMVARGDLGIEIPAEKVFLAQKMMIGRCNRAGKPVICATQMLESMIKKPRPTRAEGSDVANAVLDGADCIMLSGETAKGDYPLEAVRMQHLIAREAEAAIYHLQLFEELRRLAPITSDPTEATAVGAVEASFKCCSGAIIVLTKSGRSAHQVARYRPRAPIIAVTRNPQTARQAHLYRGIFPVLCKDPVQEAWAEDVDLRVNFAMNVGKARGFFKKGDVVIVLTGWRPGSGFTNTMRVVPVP
# Measurement protocol: surface plasmon resonance, CM5 chip, steady-state […]
Reported endpoint: Kd

Give reported Kd value for CC1=C(O)C(=O)C=C2C1=CC=C1[C@@]2(C)CC[C@@]2(C)[C@@H]3C[C@](C)(C(=O)O)CC[C@]3(C)CC[C@]12C [Cel, Celastrol]
635 µM

Source listed as paper PMC9121578.
